Data origin: patent US9247740B2

- System: Heliothis virescens (Tobacco Budworm)
- measurementProtocol: Heliothis virescens egg test on artificial diet
- Assay type: in vivo
- conditionContext: 96 h, 200 ppm (concentration in well 18 ppm), eggs 0-24 h old on artificial diet, egg mortality, larval mortality, growth regulation after 4 days
Task for the reader: assign each of the following compounds its reported pest or weed control at 200 ppm.

Example cases with answers are listed next.
compound	valueMeasured
Cc1cc(C2=NO[C@@](c3cc(Cl)c(Cl)c(Cl)c3)(C(F)(F)F)C2)ccc1C(=O)N[C@H]1C[S@@+]([O-])C1	≥ 80%
O=C(N[C@H]1C[S@@+]([O-])C1)c1ccc(C2=NO[C@@](c3cc(Cl)cc(Cl)c3)(C(F)(F)F)C2)cc1Cl	≥ 80%

# input for lookup
Under Heliothis virescens (Tobacco Budworm), report pest or weed control at 200 ppm for O=C(NC1CSC1)c1ccc(C2=NOC(c3cc(Cl)cc(Cl)c3)(C(F)(F)F)C2)c([N+](=O)[O-])c1 (stereo not drawn)
≥ 80%

* * *

- System: Plutella xylostella (Diamond Back Moth)
- measurementProtocol: Plutella xylostella larval test on artificial diet
- Type: in vivo
- conditionContext: 144 h, 200 ppm (concentration in well 18 ppm), L2 larvae, larval mortality and growth regulation after 6 days
measuredQuantity: pest or weed control at 200 ppm

Example cases with answers are listed next.
molecule	pest or weed control at 200 ppm
CCc1cc(C2=NOC(c3cc(Cl)cc(Cl)c3)(C(F)(F)F)C2)ccc1C(=O)NC1CSC1 (stereo not shown)	≥ 80%
Cc1cc(C2=NOC(c3cc(C(F)(F)F)n(C)c3)(C(F)(F)F)C2)ccc1C(=O)NC1CSC1 (stereo not shown)	≥ 80%
Cc1cc(C2=[N+]([O-])OC(c3cc(Cl)cc(Cl)c3)(C(F)(F)F)C2)ccc1C(=O)NC1CS(=O)(=O)C1 (stereo not shown)	≥ 80%
Cc1cc(C2=NO[C@@](c3cc(Cl)cc(Cl)c3)(C(F)(F)F)C2)ccc1C(=O)NCC1CS(=O)(=O)C1	≥ 80%
Cc1cc(C2=NOC(c3cc(Cl)cc(Cl)c3)(C(F)(F)F)C2)ccc1C(=O)NCC1CS(=O)(=O)C1 (stereo not shown)	≥ 80%
Cc1cc(C2=NOC(c3cc(C(F)(F)F)n(CC(F)F)c3)(C(F)(F)F)C2)ccc1C(=O)NC1CSC1 (stereo not shown)	≥ 80%

Look up pest or weed control at 200 ppm for the entries below, preserving their order.
1. Cc1cc(C2=NO[C@@](c3cc(Cl)c(Cl)c(Cl)c3)(C(F)(F)F)C2)ccc1C(=O)N[C@H]1C[S@@+]([O-])C1
2. O=C(N[C@H]1C[S@@+]([O-])C1)c1ccc(C2=NO[C@@](c3cc(Cl)cc(Cl)c3)(C(F)(F)F)C2)cc1Cl
3. Nc1cc(C2=NOC(c3cc(Cl)cc(Cl)c3)(C(F)(F)F)C2)ccc1C(=O)NC1CSC1 (stereo not shown)
4. Cc1cc(C2=NO[C@@](c3cc(Cl)cc(Cl)c3)(C(F)(F)F)C2)cnc1C(=O)N[C@H]1C[S@@+]([O-])C1

1. ≥ 80%
2. ≥ 80%
3. ≥ 80%
4. ≥ 80%
